These measurements were taken from PubChem BioAssay (NCI).

# reported TGI; entries follow
tested on: EKVX NSCLC; assay: NCI tumour cell line growth inhibition, 48 h

>  <compound>
C/C=C\C(CC(=O)NCCC1CN(S(=O)(=O)c2ccc(C)cc2)c2ccccc21)CC(=O)OC (centres undefined)

>  <TGI>
> 100 µM

$$$$
>  <compound>
O=C(/C=C/c1ccccc1)NNC(=O)c1c(Cl)c(Cl)c(Cl)c(Cl)c1-c1nc2ccccc2[nH]1

>  <TGI>
> 100 µM

$$$$
>  <compound>
COC(=O)[C@@]12OC[C@]34[C@H]([C@@H](O)[C@@H]1O)[C@@]1(C)[C@H](O)C(=O)C=C(C)[C@@H]1C[C@H]3OC(=O)C(OC(C)=O)[C@@H]24 (some centres undefined)

>  <TGI>
0.372 µM

$$$$
>  <compound>
Cc1ccc([N+](=O)[O-])cc1NC(=O)/C(=N/NC(=S)NN)C1SC(=S)NC1=O (centres undefined)

>  <TGI>
> 100 µM

$$$$
>  <compound>
O=C(O/C(=C(/N=Nc1ccccc1)c1ccccc1)c1ccccc1)c1ccccc1

>  <TGI>
> 100 µM

$$$$
>  <compound>
CCOP(=O)(OCC)C(C)(CC)N/C(=N/C(NC(C)=O)(C(F)(F)F)C(F)(F)F)NC1=NC(C(F)(F)F)(C(F)(F)F)N=C(C(F)(F)F)O1 (centres undefined)

>  <TGI>
> 100 µM

$$$$
>  <compound>
CN(C)CC(CC1=C(CC(CN(C)C)N(C)C)CCC1)N(C)C (centres undefined)

>  <TGI>
> 100 µM

$$$$
>  <compound>
O=C(Nc1ccncc1)C(=O)c1cn(Cc2ccc(Cl)cc2)c2ccccc12

>  <TGI>
> 100 µM

$$$$
>  <compound>
O=S(=O)(Nc1ccc(Br)c(Cl)c1)c1ccc(-c2cnc(C3CC3)o2)cc1

>  <TGI>
21 µM

$$$$
>  <compound>
CC1=CC(=O)c2ccccc2C1=O

>  <TGI>
31.8 µM

$$$$
>  <compound>
COc1cc2c(cc1OCCCCN1C(=O)c3cccc4cccc(c34)C1=O)N=C[C@@H]1CCCN1C2=O

>  <TGI>
44.6 µM

$$$$
>  <compound>
CC(=O)C(=Cc1ccc(C=C(C(C)=O)C(C)=O)cc1)C(C)=O

>  <TGI>
8.76 µM

$$$$
>  <compound>
COc1cc(NC(C)CCCN)c2ncccc2c1 (centres undefined)

>  <TGI>
> 100 µM

$$$$
>  <compound>
COc1cccc2c1Cc1cc(-c3ccccc3)[n+](C)n1-2

>  <TGI>
8.22 µM

$$$$
>  <compound>
COc1ccc(CNC(=O)NCn2cc(-c3ccccc3)nn2)cc1

>  <TGI>
> 100 µM

$$$$
>  <compound>
Cc1cc(N(CCC#N)CCC#N)ccc1/C(N=Nc1ccc(C(=O)O)cc1)=N\NC(=O)c1cc(Cl)ccc1O

>  <TGI>
> 100 µM

$$$$
>  <compound>
OCC(O)C(Cl)CCl (centres undefined)

>  <TGI>
> 100 µM

$$$$
>  <compound>
CC(=O)OC[C@]12CC[C@@H](C(=O)CBr)[C@@H]1[C@H]1CC[C@@H]3[C@@]4(C)CCCNC(C)(C)[C@@H]4CC[C@@]3(C)[C@]1(C)CC2

>  <TGI>
25.2 µM

$$$$
>  <compound>
C[C@]12CCc3sc(NCCc4ccccc4)nc3C1=CC[C@@H]1[C@@H]2CC[C@]2(C)C(=O)CC[C@@H]12

>  <TGI>
> 100 µM

$$$$

* * *

test system: SR leukemia; assay: NCI tumour cell line growth inhibition, 48 h
measuredQuantity: TGI

>  <compound>
O=C(O/C(=C(/N=Nc1ccccc1)c1ccccc1)c1ccccc1)c1ccccc1

>  <measuredQuantity>
TGI

>  <valueMeasured>
> 100 µM

$$$$
>  <compound>
O=C1CSC(c2ccc([N+](=O)[O-])cc2)N1c1ccc(-n2c(-c3ccccc3)nc3ccccc3c2=O)cc1 (stereo not given)

>  <measuredQuantity>
TGI

>  <valueMeasured>
> 100 µM

$$$$
>  <compound>
Cc1cccc(N(C(=O)Nc2ccc(Cl)c(Cl)c2)C2=NCC(C)S2)c1 (stereo not given)

>  <measuredQuantity>
TGI

>  <valueMeasured>
> 100 µM

$$$$
>  <compound>
CC(=O)C1=C(C)N(c2ccc(C)cc2)C2(O)C=CC(=O)C3C(=O)N(c4ccccc4)C(=O)C132 (stereo not given)

>  <measuredQuantity>
TGI

>  <valueMeasured>
23.7 µM

$$$$
>  <compound>
CCOC(=O)c1nc2ccccc2nc1NCc1cc(OC)c(OC)c(OC)c1

>  <measuredQuantity>
TGI

>  <valueMeasured>
> 100 µM

$$$$

* * *

system: A549 NSCLC; assay: NCI tumour cell line growth inhibition, 48 h

>  <compound>
COC(=O)[C@@]12OC[C@]34[C@H]([C@@H](O)[C@@H]1O)[C@@]1(C)[C@H](O)C(=O)C=C(C)[C@@H]1C[C@H]3OC(=O)C(OC(C)=O)[C@@H]24 (stereo not given in full)

>  <operatorSymbol>
=

>  <TGI, µM>
0.294

$$$$
>  <compound>
CN(C)C(=S)/N=c1\ssc(=S)n1Cc1ccccc1

>  <operatorSymbol>
=

>  <TGI, µM>
56

$$$$
>  <compound>
CNCCCn1c2c(c3ccc([N+](=O)[O-])cc3c1=O)C(=O)c1cc(OC)cnc1-2

>  <operatorSymbol>
=

>  <TGI, µM>
0.359

$$$$
>  <compound>
CCOC(=O)C1=NN(c2ccc(C)cc2)C2=CC(C)=NN(C)C(=S)N21

>  <operatorSymbol>
>

>  <TGI, µM>
100

$$$$
>  <compound>
Cc1ccc(N2C(=O)CS/C2=C(\C#N)c2nc3ccccc3[nH]2)cc1

>  <operatorSymbol>
>

>  <TGI, µM>
100

$$$$

* * *

# reported TGI; entries follow
tested on: RXF 393 renal; experiment: NCI tumour cell line growth inhibition, 48 h

>  <compound>
S=C1N(/N=C/c2c3ccccc3cc3ccccc23)C(=Nc2ccccc2)C(=Nc2ccccc2)N1c1ccccc1

>  <TGI>
> 100 µM

$$$$
>  <compound>
Cc1ccccc1C(=O)N/N=C/c1ccc(Sc2nccn2C)c([N+](=O)[O-])c1

>  <TGI>
> 100 µM

$$$$
>  <compound>
CCN(CC(=O)O)C(=O)c1cccnc1

>  <TGI>
> 100 µM

$$$$
>  <compound>
COC(=O)C1CN=CN1CCc1ccccc1 (stereo unspecified)

>  <TGI>
> 100 µM

$$$$
>  <compound>
CN[C@H](C#Cc1c(F)ccc2c1/C(=C/c1[nH]ccc1OC)C(=O)N2)CO

>  <TGI>
0.704 µM

$$$$
>  <compound>
Nc1ccc2c(SCc3ccc([N+](=O)[O-])cc3)c3ccccc3nc2c1

>  <TGI>
42.3 µM

$$$$
>  <compound>
O=C(NCCNCCCNC(=O)c1cc(-c2ccccc2)nc2ccccc12)c1cccc(O)c1O

>  <TGI>
47.7 µM

$$$$
>  <compound>
O=C(NC(=O)c1cn(CCN(CCO)C(=O)NCCCCCCNC(=O)N(CCO)CCn2cc(C(=O)NC(=O)OCc3ccccc3)c(=O)[nH]c2=O)c(=O)[nH]c1=O)OCc1ccccc1

>  <TGI>
> 100 µM

$$$$
>  <compound>
COC(=O)C(C#CCCCCC#CC(NC(=O)OCc1ccccc1)(C(=O)OC)C(F)(F)F)(NC(=O)OCc1ccccc1)C(F)(F)F (stereo unspecified)

>  <TGI>
> 100 µM

$$$$
>  <compound>
NC(=O)c1ccc(I)c(N=O)c1

>  <TGI>
66 µM

$$$$
>  <compound>
O=[N+]([O-])c1ccc2c(c1)Cc1cc(N=Cc3ccc4c(c3)OCO4)ccc1-2

>  <TGI>
> 100 µM

$$$$

* * *

tested on: COLO 205 colon; test: NCI tumour cell line growth inhibition, 48 h; in the data active = GI50 below about 0.43 µM; inactive = the rest
Labels: class 1 for active, class 0 for inactive

>  <compound>
COc1cccc2c1C(=O)c1c(O)c3c(c(O)c1C2=O)CC(O)(C(O)CO)CC3OC1CC(N2CCOCC2)C(O)C(C)O1 (configuration not stated)

>  <groupLabel>
class 1

$$$$
>  <compound>
N#CCCN(CCCN(CCCN(C(=O)Nc1ccccc1)c1ccccc1)C(=O)Nc1ccccc1)C(=O)Nc1ccccc1

>  <groupLabel>
class 0

$$$$
>  <compound>
CNC(=O)c1cccc2cc(Oc3ccnc4cc(OCC5(N)CC5)c(OC)cc34)ccc12

>  <groupLabel>
class 0

$$$$
>  <compound>
COc1cccc2c1ccc1nc3cccc(C(=O)N[C@H](C)CN(C)C)c3nc12

>  <groupLabel>
class 1

$$$$
>  <compound>
COc1cc(Nc2c(C#N)cnc3cc(OCCCN4CCN(C)CC4)c(OC)cc23)c(Cl)cc1Cl

>  <groupLabel>
class 0

$$$$
>  <compound>
COc1cc2c3c(n(CCCCN)c(=O)c2cc1OC)-c1cc2c(cc1C3=O)OCO2

>  <groupLabel>
class 0

$$$$
>  <compound>
C=CCC1(O)c2ccccc2C(=O)c2c(NCCN(CC(=O)OCC)CC(=O)OCC)cccc21 (configuration not stated)

>  <groupLabel>
class 0

$$$$
>  <compound>
COc1cccc(-n2nc(C)c3c(N/N=C(\C)c4ccncc4)ncnc32)c1

>  <groupLabel>
class 0

$$$$
>  <compound>
C1COCCN1.C1COCCN1.NC1CCCCC1N.[Cl-].[Pt+2] (configuration not stated)

>  <groupLabel>
class 0

$$$$
>  <compound>
COc1cc2c(cc1O)CC[C@@H]1[C@@H]2CC[C@]2(C)[C@@H](OCCN(C)C)CC[C@@H]12

>  <groupLabel>
class 0

$$$$
>  <compound>
O=c1cc(-c2ccccc2F)[nH]c2ccc(N3CCCC3)cc12

>  <groupLabel>
class 1

$$$$
>  <compound>
O=C(Nc1ccncc1)C(=O)c1cn(Cc2ccc(Cl)cc2)c2ccccc12

>  <groupLabel>
class 1

$$$$
